Assay: in vivo
Conditions: female, mongrel, dog, venous plasma, iv, 7 mg, Vd, dog venous plasma, 2-min IV infusion
measured_metric: Vd (L/kg)
Field: numeric (L/kg). Do not append units.

Entry `CN1CCN(CCCN2c3ccccc3Sc3ccc(Cl)cc32)CC1` : reported Vd = ? 3.8

---

Experiment: in vivo
Settings: female, mongrel, dog, left ventricular plasma, iv, 7 mg, AUC0-10 min, dog left ventricular plasma, IV bolus
measured_metric: AUC(0-t) (ng·h/mL)
Write the value in ng·h/mL as a bare number.

What does the record list as AUC(0-t) for CN1CCN(CCCN2c3ccccc3Sc3ccc(Cl)cc32)CC1 [PCZ, prochlorperazine] ? 98.3

---

Assay: in vivo
Details: female, mongrel, dog, left ventricular plasma, inhaled or intranasal, 7 mg, AUC0-10 min, dog left ventricular plasma, aerosol inhalation
measured_metric: AUC(0-t) (ng·h/mL)
Form entry: value (ng·h/mL) — number only.

Which AUC(0-t) is reported for this compound? `CN1CCN(CCCN2c3ccccc3Sc3ccc(Cl)cc32)CC1` 89.1

---

Assay: Pharmacokinetics of aerosolized alprazolam in dog (left ventricular and venous plasma) vs IV bolus
Format: in vivo
Conditions: female, mongrel, left ventricular plasma, intravenous, inhaled, 0.7 mg; dog left ventricle plasma; both routes; read-out: mean terminal elimination half-life
measured_metric: half-life

Can you share its half-life? I mean this molecule: `Cc1nnc2n1-c1ccc(Cl)cc1C(c1ccccc1)=NC2` ~4 min

Sourced from patent US20060120962A1
